system-name: PDZ protein (GST-PDZ fusion) (Homo sapiens)
Construct: made in house; host or cells: E. coli (DH5alpha, BL21 or JM109)
Sequence (Q02410 1-837): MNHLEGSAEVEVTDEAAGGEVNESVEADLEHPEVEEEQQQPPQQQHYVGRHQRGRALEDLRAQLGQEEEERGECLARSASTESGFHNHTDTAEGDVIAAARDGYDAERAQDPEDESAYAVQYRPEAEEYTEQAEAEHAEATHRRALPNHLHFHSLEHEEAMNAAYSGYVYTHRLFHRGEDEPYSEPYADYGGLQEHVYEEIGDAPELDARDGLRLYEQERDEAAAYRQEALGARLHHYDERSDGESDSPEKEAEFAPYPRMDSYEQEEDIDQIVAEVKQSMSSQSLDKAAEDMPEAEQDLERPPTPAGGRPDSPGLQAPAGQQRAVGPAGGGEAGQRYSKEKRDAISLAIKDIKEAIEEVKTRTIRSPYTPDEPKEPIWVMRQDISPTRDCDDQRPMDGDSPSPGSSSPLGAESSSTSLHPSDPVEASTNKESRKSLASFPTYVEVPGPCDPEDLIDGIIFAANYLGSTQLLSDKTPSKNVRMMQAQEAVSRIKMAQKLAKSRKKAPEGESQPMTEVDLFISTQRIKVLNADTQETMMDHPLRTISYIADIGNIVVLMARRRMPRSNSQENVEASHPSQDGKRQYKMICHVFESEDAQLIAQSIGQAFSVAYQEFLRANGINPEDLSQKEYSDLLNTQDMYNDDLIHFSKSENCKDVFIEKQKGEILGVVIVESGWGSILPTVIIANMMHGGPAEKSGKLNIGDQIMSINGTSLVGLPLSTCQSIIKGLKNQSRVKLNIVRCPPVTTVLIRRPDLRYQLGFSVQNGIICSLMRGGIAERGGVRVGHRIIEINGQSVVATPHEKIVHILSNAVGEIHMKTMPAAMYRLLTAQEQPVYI
assay-method-text: G' assay (10 uM PL peptide), results of TABLE 7 and TABLE 12
Assay type: binding
condition-label: PDZ Mint 1, PDZ Domain 1, 2
Ends that are not written are not given here. * marks the point of attachment. Biotin = O=C1N[C@H]2[C@H](CS[C@H]2CCCCC(=O)*)N1
Reported Classification values follow for various substances
observable: Classification

>>> experimental_result("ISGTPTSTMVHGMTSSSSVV (Biotin-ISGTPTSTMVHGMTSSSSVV) [Clasp-2]")
"1 (A450 nm 0-1)"
>>> experimental_result("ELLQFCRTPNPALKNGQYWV (Biotin-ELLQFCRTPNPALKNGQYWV)")
"5 (A450 nm of 4 more than 2× repeated)"
>>> experimental_result("KAGYRAPRSYPKSNSSKEYV (Biotin-KAGYRAPRSYPKSNSSKEYV) [claudin 7]")
"4 (A450 nm 3-4)"
>>> experimental_result("VISKATPALPTVSISSSAEV (Biotin-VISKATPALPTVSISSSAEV) [Clasp-1]")
"1 (A450 nm 0-1)"
>>> experimental_result("LNETTETQRTLLNGDLQTSI (Biotin-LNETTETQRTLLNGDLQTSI) [SSTR2 (somatostatin recepor 2)]")
"1 (A450 nm 0-1)"
>>> experimental_result("LGYSIPSRSGASGLDKRDYV (Biotin-LGYSIPSRSGASGLDKRDYV) [claudin 9]")
"1 (A450 nm 0-1)"
>>> experimental_result("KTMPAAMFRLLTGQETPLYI (Biotin-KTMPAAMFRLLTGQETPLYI) [MINT-2]")
"5 (A450 nm of 4 more than 2× repeated)"
>>> experimental_result("CKR5_HUMAN (ERASSVYTRSTGEQEISVGL)")
"1 (A450 nm 0-1)"
>>> experimental_result("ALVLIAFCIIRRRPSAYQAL (Biotin-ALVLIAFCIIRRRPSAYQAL) [CD68]")
"1 (A450 nm 0-1)"
>>> experimental_result("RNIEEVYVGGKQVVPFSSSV (Biotin-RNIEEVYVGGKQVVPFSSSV) [Nedasin (s-form)]")
"1 (A450 nm 0-1)"
